The origin of these recorded values is the supplement of paper PMC11150407.

- Test system: MOLM1 and UCSD/AML1 (averaged)
- protocol.description: cell viability relative to DMSO control (POC); higher = less growth inhibition
- conditions: 1 µM; 72 h
In all, about 2,100 compounds went through this assay and about 180 (8.6%) showed an effect of 50% or more. The sample holds strong results, similar compounds and a random draw of the others, so the mix is not that of the screen.
Parameter: cell viability. Scope: all listed entries.

molecule	target.or.system	cell viability
C=CC[C@@H]1/C=C(\C)C[C@H](C)C[C@H](OC)[C@H]2O[C@@](O)(C(=O)C(=O)N3CCCC[C@H]3C(=O)O[C@H](/C(C)=C/[C@@H]3CC[C@@H](O)[C@H](OC)C3)[C@H](C)[C@@H](O)CC1=O)[C@H](C)C[C@@H]2OC	MOLM1 and UCSD/AML1 (averaged)	85.3%
CC1=CC(=O)CC(C)(C)C1(O)/C=C/C(C)=C\C(=O)O (mixture of isomers) [ABSCISIC ACID (cis,trans; +/-)]	MOLM1 and UCSD/AML1 (averaged)	102%
Nc1nc(F)nc2c1ncn2[C@@H]1O[C@H](CO)[C@@H](O)[C@@H]1O	MOLM1 and UCSD/AML1 (averaged)	53%
Nc1ncn([C@@H]2O[C@H](CO)[C@@H](O)[C@H]2O)c(=O)n1 [Azacitidine (Vidaza)]	MOLM1 and UCSD/AML1 (averaged)	84.2%
O=c1[nH]c(=O)n([C@H]2C[C@H](O)[C@@H](CO)O2)cc1F	MOLM1 and UCSD/AML1 (averaged)	83.1%
CCc1cn([C@H]2C[C@H](O)[C@@H](CO)O2)c(=O)[nH]c1=O	MOLM1 and UCSD/AML1 (averaged)	91.5%
COc1nc(N)nc2c1ncn2[C@@H]1O[C@H](CO)[C@@H](O)[C@@H]1O	MOLM1 and UCSD/AML1 (averaged)	109%
Nc1nc(F)nc2c1ncn2[C@@H]1O[C@H](COP(=O)(O)O)[C@@H](O)[C@@H]1O	MOLM1 and UCSD/AML1 (averaged)	74.4%
Cn1cc(-c2ccc3nnc(C(F)(F)c4ccc5ncccc5c4)n3n2)cn1	MOLM1 and UCSD/AML1 (averaged)	101%
O=c1[nH]c(=O)n([C@H]2C[C@H](O)[C@@H](CO)O2)cc1F [Floxuridine]	MOLM1 and UCSD/AML1 (averaged)	64.4%
CC(=O)O[C@@H]1CC(=O)[C@@]2(C)C(CC(=O)[C@]3(C)C2CC[C@@]2(C)[C@H](c4ccoc4)OC(=O)C4OC423)C1(C)C (stereo partly specified)	MOLM1 and UCSD/AML1 (averaged)	100%
Nc1ncn([C@@H]2O[C@H](CO)[C@@H](O)[C@H]2O)c(=O)n1	MOLM1 and UCSD/AML1 (averaged)	77.4%
Nc1ncnc2c1ncn2[C@H]1C[C@H](O)[C@@H](CO)O1	MOLM1 and UCSD/AML1 (averaged)	90.9%
CCCCC(=O)Oc1ccccc1C(=O)O	MOLM1 and UCSD/AML1 (averaged)	115%
NC(=O)c1ccc[n+]([C@@H]2O[C@H](COP(=O)([O-])OP(=O)(O)OC[C@H]3O[C@@H](n4cnc5c(N)ncnc54)[C@H](O)[C@@H]3O)[C@@H](O)[C@H]2O)c1	MOLM1 and UCSD/AML1 (averaged)	81.6%
Nc1nc(Cl)nc2c1ncn2[C@H]1C[C@H](O)[C@@H](CO)O1	MOLM1 and UCSD/AML1 (averaged)	5.67%
